Test system: 786-0 renal
Experiment: NCI tumour cell line growth inhibition, 48 h
TGI values, listed per item
Number in µM, nothing else.

| SMILES_DATA | DISPLAY_UNIT | TGI |
| --- | --- | --- |
| N#CSc1c[nH]c2cccc(/C=C/C(=O)/C=C(/C=C/c3cccc4[nH]cc(SC#N)c34)OB(F)F)c12 | µM | 2.06 |
| C[C@]12CC[C@H]3[C@@H](CC=C4C[C@@H](O)CC[C@@]43C)[C@@H]1CC[C@@H]2N(CCO)CCO | µM | 42.7 |
| [Cl-].[Dy+3].[O-]/N=C(\c1ccccc1)c1ccccn1.[O-]/N=C(\c1ccccc1)c1ccccn1.[O-]/N=C(\c1ccccc1)c1ccccn1 | µM | 96.6 |
| CCC(=O)Oc1c2ccsc2c(OC(=O)CC)c2ccsc12 | µM | 4.33 |

Entry "CCN(CC)c1ccc(/C=C/c2ccc3cc(C)ccc3[n+]2CC)cc1" ; TGI = 6.46

====

Test system: MDA-N
Experiment: NCI tumour cell line growth inhibition, 48 h
TGI values, listed per item

| COMPOUND | ASSAY_ENDPOINT | VALUE |
| --- | --- | --- |
| COc1cc(CN2CCCCC2)cc2cc(C(=O)O)c(=O)oc12 | TGI | > 100 µM |
| OC1(c2ccc(Cl)cc2)c2ccc3ccccc3c2C2=N[C@H]3CCCC[C@@H]3N21 (stereo not given in full) | TGI | > 100 µM |
| Cc1cn([C@@H]2C[C@H]2CO)c(=O)[nH]c1=O | TGI | > 100 µM |
| Clc1ccc(OCc2nnc(CCCCCCCCc3nnc(COc4ccc(Cl)cc4)n3Nc3ccccc3)n2Nc2ccccc2)cc1 | TGI | 37.1 µM |

Entry "O=C(Cc1ccc([N+](=O)[O-])cc1)OCC#CCOC(=O)Cc1ccc([N+](=O)[O-])cc1" ; TGI = > 10 µM

====

System: MCF7 breast
Assay: NCI tumour cell line growth inhibition, 48 h
log10(TGI) values, listed per item
Values reflect log10 of reported TGI (µM).

Entry CC1(C)OC2[C@@H](CNC(=O)NC(=O)NC(=O)CI)O[C@@H](n3cnc4c(NC(=O)Nc5ccccc5)ncnc43)[C@H]2O1 (stereo partly drawn) ; log10(TGI) = 1.15

Entry "O=C(/C(Br)=C/c1ccccc1)c1ccccc1" ; log10(TGI) = 1.72

Entry "O=C1C=C(c2ccccc2)O/C1=C/C(=O)c1ccc(Cl)cc1" ; log10(TGI) = 1.48

Entry "CC(C)(C)c1cc(/C=C(\C#N)C(=O)NCCO)cc(C(C)(C)C)c1O" ; log10(TGI) = 1.97

Entry "CN(C)CCn1c(=O)c2ccc(NCCCN(C)CCCNc3ccc4c(=O)n(CCN(C)C)c(=O)n5c6ccc([N+](=O)[O-])cc6c(=O)c3c45)c3c(=O)c4cc([N+](=O)[O-])ccc4n(c1=O)c23" ; log10(TGI) = -0.22

Entry CCC(C)C(=O)OC1CC2(C)C(c3ccoc3)OC(=O)CC23OC2(C)OC34C(OC(=O)C(C)C)C3(O)C(OC(=O)C5(C)OC5C)C5(C)CC3(O)C(C)(C5CC(=O)OC)C14O2 (stereo not drawn) ; log10(TGI) = 1.82

====

Test system: OVCAR-8 ovarian
Assay: NCI tumour cell line growth inhibition, 48 h
Where a SMILES comes first, the peptide text is derived from it. The star is where a group is joined. Cbz = O=C(OCc1ccccc1)*; NHNH2 = NN*
TGI values, listed per item

Solved cases below.
| COMPOUND | ASSAY_ENDPOINT | VALUE |
| --- | --- | --- |
| C=C1C(=O)O[C@H]2[C@H]1CC/C(Cn1cc(-c3ccc(OC)cc3)nn1)=C\CC[C@@]1(C)O[C@@H]21 | TGI | 7.67 µM |
| COc1ccc(-c2cc(=O)c3ccc(O)cc3o2)cc1OC | TGI | > 100 µM |
| Nc1c(C(=O)c2ccc(Cl)cc2)[nH]c(NCc2ccccc2)c1C(=S)Nc1ccccc1 | TGI | 3.37 µM |
| COc1cc2c(/C=C3/C(=O)Nc4ccccc43)c(Cl)[nH]c2cc1C | TGI | 12.6 µM |
| COC(=O)C1Cc2c(n(Cc3ccccc3)c3ccccc23)C(CCC(=O)O)N1C(C)C (centres undefined) | TGI | > 100 µM |

Entry "CC(C)c1nc(CN(C)C(=O)N[C@H](C(=O)N[C@@H](Cc2ccccc2)C[C@H](O)[C@H](Cc2ccccc2)NC(=O)OCc2cncs2)C(C)C)cs1" ; TGI = > 100 µM

Entry "O=[N+]([O-])c1ccc(-c2ccc(-c3csc(Nc4ccccn4)n3)o2)cc1" ; TGI = > 100 µM

Entry COC(=O)CC(NC(=O)OCc1ccccc1)C(=O)NC(CC(=O)OC)C(=O)NC(CC(=O)OC)C(=O)NC(CC(=O)OC)C(=O)NC(CC(=O)OC)C(=O)NC(CC(=O)OC)C(=O)NN (centres undefined) (Cbz-D(OMe)D(OMe)D(OMe)D(OMe)D(OMe)D(OMe)-NHNH2; configuration not given here) ; TGI = > 100 µM

Entry "O=c1/c(=C/c2ccco2)sc2nc3ccccc3n12" ; TGI = > 100 µM

Entry "O=c1[nH]nc(-c2ccccc2)c2[nH]c(-c3ccccc3)cc12" ; TGI = > 100 µM

Entry "O=C(N/N=C/c1ccco1)c1cc(I)cc(I)c1O" ; TGI = > 50 µM

Entry "Clc1ccc(OCc2nnc(CCCCCCCCc3nnc(COc4ccc(Cl)cc4)n3Nc3ccccc3)n2Nc2ccccc2)cc1" ; TGI = > 100 µM
